Ref: ChEMBL document CHEMBL1135858

Target: Vitamin D3 receptor (Sus scrofa) (UniProt A3RGC1)
Sequence (whole entry): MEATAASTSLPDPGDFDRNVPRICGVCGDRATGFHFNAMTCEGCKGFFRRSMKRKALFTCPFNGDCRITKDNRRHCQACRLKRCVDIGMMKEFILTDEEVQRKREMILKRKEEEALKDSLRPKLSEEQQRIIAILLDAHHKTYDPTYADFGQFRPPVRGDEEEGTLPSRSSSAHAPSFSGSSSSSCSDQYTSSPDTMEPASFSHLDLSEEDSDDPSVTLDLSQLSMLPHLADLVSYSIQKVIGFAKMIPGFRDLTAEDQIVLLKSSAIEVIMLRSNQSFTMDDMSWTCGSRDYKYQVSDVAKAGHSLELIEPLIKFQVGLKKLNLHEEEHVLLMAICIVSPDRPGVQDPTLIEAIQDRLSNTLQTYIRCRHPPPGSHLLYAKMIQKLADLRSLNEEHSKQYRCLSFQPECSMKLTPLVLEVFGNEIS
Experiment: Displacement of 50% binding of [3H]alpha,25 (OH)2D3 from pig intestinal mucosa Vitamin D3 receptor
Type: tissue-based
Give true (1) when the value for Relative affinity is at least 80. Give false (0) when it is less.

Task: Threshold query (Relative affinity >= 80) on C=C1C(=CC=C[C@@H]2CC[C@](C)([C@@H](C)CC(C)CC#CC(C)(C)O)C2(C)C)C[C@@H](O)C[C@@H]1O (some centres not stated)
Output: false (0)

Task: Threshold query (Relative affinity >= 80) on CCC(O)(C#CCC(C)C[C@H](C)[C@@]1(C)CC[C@@H](/C=C/C=C2C[C@@H](O)C[C@H](O)C2)C1(C)C)CC (some centres not stated)
Output: false (0)

Task: Threshold query (Relative affinity >= 80) on CC(CCCC(C)(C)O)C[C@H](C)[C@@]1(C)CC[C@@H](/C=C/C=C2C[C@@H](O)C[C@H](O)C2)C1(C)C (some centres not stated)
Output: false (0)

Task: Threshold query (Relative affinity >= 80) on C=C1C(=CC=C[C@@H]2CC[C@](C)([C@@H](C)CC(C)CCCC(O)(CC)CC)C2(C)C)C[C@@H](O)C[C@@H]1O (some centres not stated)
Output: true (1)

Task: Threshold query (Relative affinity >= 80) on C=C1C(=CC=C[C@@H]2CC[C@](C)([C@@H](C)CC(C)CC#CC(O)(C(F)(F)F)C(F)(F)F)C2(C)C)C[C@@H](O)C[C@@H]1O (some centres not stated)
Output: false (0)

Task: Threshold query (Relative affinity >= 80) on CCC(O)(CC)CCCC(C)C[C@H](C)[C@@]1(C)CC[C@@H](/C=C/C=C2C[C@@H](O)C[C@H](O)C2)C1(C)C (some centres not stated)
Output: false (0)
